# reported melting temperature; entries follow
Tested on: HeLa Kyoto
Assay: melting temperature (median over replicates), in situ; higher = more thermally stable
Conditions: cell cycle stage: mitosis
Report the figure in °C without appending any unit label.

# lookup: melting temperature of MNGRADFREPNAEVPRPIPHIGPDYIPTEEERRVFAECNDESFWFRSVPLAATSMLITQGLISKGILSSHPKYGSIPKLILACIMGYFAGKLSYVKTCQEKFKKLENSPLGEALRSGQARRSSPPGHYYQKSKYDSSVSGQSSFVTSPAADNIEMLPHYEPIPFSSSMNESAPTGITDHIVQGPDPNLEESPKRKNITYEELRNKNRESYEVSLTQKTDPSVRPMHERVPKKEVKVNKYGDTWDE [OCIAD1]
53.1

Given the sequence MSESFDCAKCNESLYGRKYIQTDSGPYCVPCYDNTFANTCAECQQLIGHDSRELFYEDRHFHEGCFRCCRCQRSLADEPFTCQDSELLCNDCYCSAFSSQCSACGETVMPGSRKLEYGGQTWHEHCFLCSGCEQPLGSRSFVPDKGAHYCVPCYENKFAPRCARCSKTLTQGGVTYRDQPWHRECLVCTGCQTPLAGQQFTSRDEDPYCVACFGELFAPKCSSCKRPIVGLGGGKYVSFEDRHWHHNCFSCARCSTSLVGQGFVPDGDQVLCQGCSQAGP [FHL3] , what is its reported melting temperature?
56.8

Which melting temperature is listed for MEPLAAYPLKCSGPRAKVFAVLLSIVLCTVTLFLLQLKFLKPKINSFYAFEVKDAKGRTVSLEKYKGKVSLVVNVASDCQLTDRNYLGLKELHKEFGPSHFSVLAFPCNQFGESEPRPSKEVESFARKNYGVTFPIFHKIKILGSEGEPAFRFLVDSSKKEPRWNFWKYLVNPEGQVVKFWKPEEPIEVIRPDIAALVRQVIIKKKEDL [GPX8] ?
52.3

---

Below, each entry is listed with its recorded melting temperature.
System: HeLa Kyoto
Test: melting temperature (median over replicates), in situ; higher = more thermally stable
Settings: cell cycle stage: mitosis
Reply numerically in °C, unit not repeated.

A selection of reference data follows.
sequenceinput="MAVVPLLLLGGLWSAVGASSLGVVTCGSVVKLLNTRHNVRLHSHDVRYGSGSGQQSVTGVTSVDDSNSYWRIRGKSATVCERGTPIKCGQPIRLTHVNTGRNLHSHHFTSPLSGNQEVSAFGEEGEGDYLDDWTVLCNGPYWVRDGEVRFKHSSTEVLLSVTGEQYGRPISGQKEVHGMAQPSQNNYWKAMEGIFMKPSELLKAEAHHAEL [SDF2]" assaymetric="melting temperature" result=54.1
sequenceinput="MASRGATRPNGPNTGNKICQFKLVLLGESAVGKSSLVLRFVKGQFHEFQESTIGAAFLTQTVCLDDTTVKFEIWDTAGQERYHSLAPMYYRGAQAAIVVYDITNEESFARAKNWVKELQRQASPNIVIALSGNKADLANKRAVDFQEAQSYADDNSLLFMETSAKTSMNVNEIFMAIAKKLPKNEPQNPGANSARGRGVDLTEPTQPTRNQCCSN [RAB5A]" assaymetric="melting temperature" result=56.4
sequenceinput="MDFLMSGLAACGACVFTNPLEVVKTRMQLQGELQAPGTYQRHYRNVFHAFITIGKVDGLAALQKGLAPALLYQFLMNGIRLGTYGLAEAGGYLHTAEGTHSPARSAAAGAMAGVMGAYLGSPIYMVKTHLQAQAASEIAVGHQYKHQGMFQALTEIGQKHGLVGLWRGALGGLPRVIVGSSTQLCTFSSTKDLLSQWEIFPPQSWKLALVAAMMSGIAVVLAMAPFDVACTRLYNQPTDAQGKGLMYRGILDALLQTARTEGIFGMYKGIGASYFRLGPHTILSLFFWDQLRSLYYTDTK [SLC25A35]" assaymetric="melting temperature" result=54.3
sequenceinput="MQWLRVRESPGEATGHRVTMGTAALGPVWAALLLFLLMCEIPMVELTFDRAVASGCQRCCDSEDPLDPAHVSSASSSGRPHALPEIRPYINITILKGDKGDPGPMGLPGYMGREGPQGEPGPQGSKGDKGEMGSPGAPCQKRFFAFSVGRKTALHSGEDFQTLLFERVFVNLDGCFDMATGQFAAPLRGIYFFSLNVHSWNYKETYVHIMHNQKEAVILYAQPSERSIMQSQSVMLDLAYGDRVWVRLFKRQRENAIYSNDFDTYITFSGHLIKAEDD [C1QTNF6]" assaymetric="melting temperature" result=55
sequenceinput="MPRPGSAQRWAAVAGRWGCRLLALLLLVPGPGGASEITFELPDNAKQCFYEDIAQGTKCTLEFQVITGGHYDVDCRLEDPDGKVLYKEMKKQYDSFTFTASKNGTYKFCFSNEFSTFTHKTVYFDFQVGEDPPLFPSENRVSALTQMESACVSIHEALKSVIDYQTHFRLREAQGRSRAEDLNTRVAYWSVGEALILLVVSIGQVFLLKSFFSDKRTTTTRVGS [TMED7]" assaymetric="melting temperature" result=56.4

Name the reported melting temperature value associated with the sequence MFKVIQRSVGPASLSLLTFKVYAAPKKDSPPKNSVKVDELSLYSVPEGQSKYVEEARSQLEESISQLRHYCEPYTTWCQETYSQTKPKMQSLVQWGLDSYDYLQNAPPGFFPRLGVIGFAGLIGLLLARGSKIKKLVYPPGFMGLAASLYYPQQAIVFAQVSGERLYDWGLRGYIVIEDLWKENFQKPGNVKNSPGTK [APOO]
56

Any idea what melting temperature was measured for MVGEMETKEKPKPTPDYLMQLMNDKKLMSSLPNFCGIFNHLERLLDEEISRVRKDMYNDTLNGSTEKRSAELPDAVGPIVQLQEKLYVPVKEYPDFNFVGRILGPRGLTAKQLEAETGCKIMVRGKGSMRDKKKEEQNRGKPNWEHLNEDLHVLITVEDAQNRAEIKLKRAVEEVKKLLVPAAEGEDSLKKMQLMELAILNGTYRDANIKSPALAFSLAATAQAAPRIITGPAPVLPPAALRTPTPAGPTIMPLIRQIQTAVMPNGTPHPTAAIVPPGPEAGLIYTPYEYPYTLAPATSILEYPIEPSGVLGAVATKVRRHDMRVHPYQRIVTADRAATGN [QKI] ?
49.8

What measured melting temperature goes with MRKIDLCLSSEGSEVILATSSDEKHPPENIIDGNPETFWTTTGMFPQEFIICFHKHVRIERLVIQSYFVQTLKIEKSTSKEPVDFEQWIEKDLVHTEGQLQNEEIVAHDGSATYLRFIIVSAFDHFASVHSVSAEGTVVSNLSS [HSPB11] ?
55.1

---

Test system: HeLa Kyoto;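 further: HeLa Kyoto cells synchronized by double thymidine or nocodazole block, proteins quantified by TMT10plex mass spectrometry, three independent biological replicates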
Experiment: melting temperature (median over replicates), in situ; higher = more thermally stable
Conditions: cell cycle stage: G1/S
Listed next: entries and their corresponding melting temperature.
The reply should be a number in °C, with the unit left off.

sequenceinput="MISLTDTQKIGMGLTGFGVFFLFFGMILFFDKALLAIGNVLFVAGLAFVIGLERTFRFFFQKHKMKATGFFLGGVFVVLIGWPLIGMIFEIYGFFLLFRGFFPVVVGFIRRVPVLGSLLNLPGIRSFVDKVGESNNMV [GOLT1B]" result=59
sequenceinput="MNRSHRHGAGSGCLGTMEVKSKFGAEFRRFSLERSKPGKFEEFYGLLQHVHKIPNVDVLVGYADIHGDLLPINNDDNYHKAVSTANPLLRIFIQKKEEADYSAFGTDTLIKKKNVLTNVLRPDNHRKKPHIVISMPQDFRPVSSIIDVDILPETHRRVRLYKYGTEKPLGFYIRDGSSVRVTPHGLEKVPGIFISRLVPGGLAQSTGLLAVNDEVLEVNGIEVSGKSLDQVTDMMIANSRNLIITVRPANQRNNVVRNSRTSGSSGQSTDNSLLGYPQQIEPSFEPEDEDSEEDDIIIEDNGVPQQIPKAVPNTESLESLTQIELSFESGQNGFIPSNEVSLAAIASSSNTEFETHAPDQKLLEEDGTIITL [PARD6B]" result=51

# input for lookup
Consider the sequence MNWELLLWLLVLCALLLLLVQLLRFLRADGDLTLLWAEWQGRRPEWELTDMVVWVTGASSGIGEELAYQLSKLGVSLVLSARRVHELERVKRRCLENGNLKEKDILVLPLDLTDTGSHEAATKAVLQEFGRIDILVNNGGMSQRSLCMDTSLDVYRKLIELNYLGTVSLTKCVLPHMIERKQGKIVTVNSILGIISVPLSIGYCASKHALRGFFNGLRTELATYPGIIVSNICPGPVQSNIVENSLAGEVTKTIGNNGDQSHKMTTSRCVRLMLISMANDLKEVWISEQPFLLVTYLWQYMPTWAWWITNKMGKKRIENFKSGVDADSSYFKIFKTKHD [DHRS7] and give its measured melting temperature.
56.6
